Entry source: patent US20130281420A1

# assay text: Ocular biodistribution study following ocular administration
# Type: in vivo, Dutch-Belted rabbits
# experimental parameters: male, Dutch-Belted, rabbit, posterior sclera and choroid, other: ocular administration, 0.08 mg/eye, formulation G, 0.08 mg/eye once, 15 min, An#101 left eye; read-out: Squalamine in posterior sclera and choroid
# Experimental: The objective of this study was to determine the ocular biodistribution of squalamine lactate formulation G (see composition above) when given once by ocular administration to male Dutch-Belted rabbits. The study design was as follows: Body weight measurements were taken for randomization/dose calculation purposes. […] Following dose administration, blood samples were collected at specified time points and plasma was prepared. […]
readout kind: concentration at 15 min
The number alone won't do; follow it with the unit.

Query :: Look at this molecule and give its reported concentration at 15 min. CC(C)[C@@H](CC[C@@H](C)[C@H]1CC[C@H]2[C@@H]3[C@H](O)C[C@H]4C[C@@H](NCCCNCCCCN)CC[C@]4(C)[C@H]3CC[C@]12C)OS(=O)(=O)O [Squalamine]
Result :: 101 ng/g
